SUBJECT OF TEST: T1, 4H249-AA
T1 chain: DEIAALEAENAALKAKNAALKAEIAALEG
ASSAY EXPLANATION: two-hybrid library CCmax;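 also: natural log of median RNA to DNA barcode read ratio; higher means stronger binding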
CONDITION LABEL: mean of both orientations
PARAMETER MEASURED: interaction score
Give bare numbers.

Reference set, count: 2
INSERT INTO measurements (binder, recorded_number) VALUES
  ('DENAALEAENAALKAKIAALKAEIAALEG [4H1257-AA]', -1.46),
  ('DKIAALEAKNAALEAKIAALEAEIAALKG [4H2466-AA]', -1.42);

Lab book: interaction score of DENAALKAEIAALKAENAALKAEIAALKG [4H1626-AA] noted as -1.39
